Some binders, each annotated with its measured interaction score.
- Study Target: T1, P6
- T1 chain: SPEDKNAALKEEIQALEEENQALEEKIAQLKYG
- Method Notes: two-hybrid library CC1;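 also: natural log of median RNA to DNA barcode read ratio; higher means stronger binding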
- Condition Details: mean of both orientations
In your answer, state the number alone without any accompanying words.

See these solved cases before continuing.
SPEDENAALEEKIAQLKQKNAALKEEIQALEYG [P5] :: 0.207
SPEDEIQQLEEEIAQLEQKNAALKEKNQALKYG [P3] :: -2.59
ENSQLEEKISQLKQKNSQLKEEIQQLEYG [P5mS] :: 0.124

Alright, here's another binder for you.
### Prompt interaction score for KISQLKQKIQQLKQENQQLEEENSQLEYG [P4mS] ?
### Response -2.75
